# Test method notes: Single-dose ALZ-801 immediate-release tablet PK and food effect study
# Type: in vivo, human
# Test context: human, plasma, oral
Value type: half-life

For the compound CC(C)[C@H](N)C(=O)NCCCS(=O)(=O)O , what half-life is on record?
< 1 h

---

# Test method notes: Phase I multiple ascending dose study of ALZ-801 capsule and tablet
# Type: in vivo, human
# Test context: both, human, plasma, oral, 265 mg, C max, Day 7, fed, ALZ-801 tablet 265 mg twice daily (Cohort D), mean ± SD
Value type: Cmax (ng/mL)
One number for each entry, in ng/mL.

For the compound NCCCS(=O)(=O)O [tramiprosate, 3-amino-1-propanesulfonic acid] , what Cmax is on record?
865

---

# Test method notes: Single-dose ALZ-801 immediate-release tablet PK and food effect study
# Assay type: in vivo, human
# Test context: human, plasma, oral, 205 mg
Provide the reported Tmax of each item.
Respond with a number, then the unit of measure.

{"Compound": "CC(C)[C@H](N)C(=O)NCCCS(=O)(=O)O", "Tmax": "0.5 h"}

From here, focus on the item given below.
For the compound NCCCS(=O)(=O)O [tramiprosate, 3-amino-1-propanesulfonic acid] , what Tmax is on record?
1.5 h

---

# Test method notes: Phase I multiple ascending dose study of ALZ-801 capsule and tablet
# Type: in vivo, human
# Test context: both, human, plasma, oral, 340 mg, T max, day 14, dosing in the fasted state
Value type: Tmax

For the compound CC(C)[C@H](N)C(=O)NCCCS(=O)(=O)O , what Tmax is on record?
~30 min

---

# Test method notes: Drug substance properties
# Format: physicochemical
Value type: pKa
Numbers only.

For the compound CC(C)[C@H](N)C(=O)NCCCS(=O)(=O)O , what pKa is on record?
7.69

---

# Test method notes: Phase I multiple ascending dose study of ALZ-801 capsule and tablet
# Type: in vivo, human
# Test context: both, human, plasma, oral, 265 mg, t ½, Day 7, fed, ALZ-801 tablet 265 mg twice daily (Cohort D), mean ± SD
Value type: half-life (h)
Numbers only, in h.

{"Compound": "CC(C)[C@H](N)C(=O)NCCCS(=O)(=O)O", "Unit symbol": "h", "Reported result": 1.11}

From here, focus on the item given below.
For the compound NCCCS(=O)(=O)O [tramiprosate, 3-amino-1-propanesulfonic acid] , what half-life is on record?
36.1

---

# Test method notes: Phase I multiple ascending dose study of ALZ-801 capsule and tablet
# Assay type: in vivo, human
# Test context: both, human, plasma, oral, 265 mg, C max, Day 1, fed, ALZ-801 tablet 265 mg (Cohort D), mean ± SD
Value type: Cmax (ng/mL)
One number for each entry, in ng/mL.

{"Compound": "CC(C)[C@H](N)C(=O)NCCCS(=O)(=O)O", "Value type": "Cmax", "Reported result": 4960}

From here, focus on the item given below.
For the compound NCCCS(=O)(=O)O [tramiprosate, 3-amino-1-propanesulfonic acid] , what Cmax is on record?
759

---

# Test method notes: Single-dose ALZ-801 immediate-release tablet PK and food effect study
# Format: in vivo, human
# Test context: human, plasma, oral, 205 mg, AUCt, 205 mg ALZ-801 tablets, fed (Regimen C)
Value type: AUC(0-t) (ng·h/mL)
Answers are plain numbers, in ng·h/mL.

For the molecule NCCCS(=O)(=O)O [tramiprosate, 3-amino-1-propanesulfonic acid] , what AUC(0-t) is on record?
2990

Recorded values, source paper PMC5814546.
